Entry source: ChEMBL document CHEMBL3352370

Provide the reported IC50 of each item.
- experimentalTarget: UniProt O61142
- Sequence (O61142 whole entry): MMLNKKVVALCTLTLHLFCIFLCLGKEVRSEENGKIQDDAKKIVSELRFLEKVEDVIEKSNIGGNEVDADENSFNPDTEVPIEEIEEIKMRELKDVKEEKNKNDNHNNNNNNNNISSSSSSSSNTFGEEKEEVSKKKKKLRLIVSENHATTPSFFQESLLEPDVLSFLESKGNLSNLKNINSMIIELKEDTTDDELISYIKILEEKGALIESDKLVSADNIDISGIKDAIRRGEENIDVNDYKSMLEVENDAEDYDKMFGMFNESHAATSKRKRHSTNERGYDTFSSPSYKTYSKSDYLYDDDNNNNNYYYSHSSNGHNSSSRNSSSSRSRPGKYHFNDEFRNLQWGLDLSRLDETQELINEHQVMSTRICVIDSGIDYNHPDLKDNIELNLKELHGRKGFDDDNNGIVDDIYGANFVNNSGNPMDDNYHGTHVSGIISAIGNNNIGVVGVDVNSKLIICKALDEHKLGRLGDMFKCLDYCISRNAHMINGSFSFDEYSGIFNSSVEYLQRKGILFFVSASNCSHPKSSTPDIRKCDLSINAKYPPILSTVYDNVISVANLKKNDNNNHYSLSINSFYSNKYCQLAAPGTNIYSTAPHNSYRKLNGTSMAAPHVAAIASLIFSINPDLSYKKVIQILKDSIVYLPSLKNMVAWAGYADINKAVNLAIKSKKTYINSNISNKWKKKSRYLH
Numbered stars: 1 amine (or outer) side, 2 acyl side, 3 side chain; on linkers, the order of the positions; unused ones are H or OH. Square brackets hold non-standard residues; d marks the D form. Peptide text beside a SMILES is read from it. ξ: configuration not given here. ξ3Amino2oxobutanoyl = CC(N[*:1])C(=O)C(=O)[*:2]; GABA = NCCCC(=O)O; βAla = NCCC(=O)O
I only need the number, in µM, no unit after it.

Tell me its IC50 given CC[C@H](C)[C@H](NC(C)=O)C(=O)N[C@H](C(=O)N[C@@H](C)C(=O)NC(C(=O)C(=O)NCCC(=O)O)C(C)C)[C@@H](C)O (stereo partly drawn) as the entry. 20

Tell me its IC50 given CC[C@@H](C)[C@H](NC(=O)[C@H](CCCCN)NC(C)=O)C(=O)N[C@H](C(=O)N[C@@H](C)C(=O)NC(CCC(N)=O)C(=O)C(=O)NCCC(=O)O)[C@@H](C)O (stereo partly drawn) as the entry. 7

Tell me its IC50 given CC[C@H](C)[C@H](NC(C)=O)C(=O)N[C@H](C(=O)N[C@@H](C)C(=O)NC(Cc1ccccc1)C(=O)C(=O)NCCC(=O)O)[C@@H](C)O (stereo partly drawn) as the entry. 100

Tell me its IC50 given CC[C@H](C)[C@H](NC(=O)[C@H](CCCCN)NC(C)=O)C(=O)N[C@H](C(=O)N[C@@H](C)C(=O)NC(C)C(=O)C(=O)NCCC(N)=O)[C@@H](C)O (stereo partly drawn) (Ac-KITA[ξ3Amino2oxobutanoyl][βAla]-NH2) as the entry. 38

Tell me its IC50 given CC[C@H](C)[C@H](NC(=O)[C@H](CCCCN)NC(C)=O)C(=O)N[C@H](C(=O)N[C@@H](C)C(=O)NC(C)C(=O)C(=O)NCC(=O)O)[C@@H](C)O (stereo partly drawn) (Ac-KITA[ξ3Amino2oxobutanoyl]G-OH) as the entry. 10

Tell me its IC50 given CC[C@H](C)[C@H](NC(C)=O)C(=O)N[C@H](C(=O)N[C@@H](C)C(=O)NC(C)C(=O)C(=O)NCCC(=O)O)[C@@H](C)O (stereo partly drawn) as the entry. 2.5

Tell me its IC50 given CC[C@H](C)[C@H](NC(=O)[C@H](CCCCN)NC(C)=O)C(=O)N[C@H](C(=O)N[C@@H](C)C(=O)NC(C)C(=O)C(=O)NCCCC(=O)O)[C@@H](C)O (stereo partly drawn) (Ac-KITA[ξ3Amino2oxobutanoyl][GABA]-OH) as the entry. 3.1

Tell me its IC50 given CC[C@H](C)[C@H](NC(=O)[C@H](CCCCN)NC(C)=O)C(=O)N[C@H](C(=O)N[C@@H](C)C(=O)NC(C)C(=O)C(=O)NCCC(=O)O)[C@@H](C)O (stereo partly drawn) (Ac-KITA[ξ3Amino2oxobutanoyl][βAla]-OH) as the entry. 1

Tell me its IC50 given CC[C@H](C)[C@H](NC(C)=O)C(=O)N[C@@H](C)C(=O)N[C@@H](C)C(=O)NC(C)C(=O)C(=O)NCCC(=O)O (stereo partly drawn) as the entry. 30

Tell me its IC50 given O=C(CCCCCNC(=O)CCCC[C@@H]1SC[C@@H]2NC(=O)N[C@@H]21)NCCCCCC(=O)Nc1ccc2c(Cl)c(OCCc3ccccc3)oc(=O)c2c1 as the entry. 18

Tell me its IC50 given CC[C@H](C)[C@H](NC(C)=O)C(=O)N[C@H](C(=O)NCC(=O)NC(C(=O)C(=O)NCCC(=O)O)C(C)C)[C@@H](C)O (stereo partly drawn) as the entry. 4.5
